Biological target: native mouse MET on living mouse cells (mouse, UniProt P16056 25-1379)
Assay: cell-based or functional assay
Assign cell scattering score, MLP29, 1.000 nM to each entry below.
Respond numerically; units are score 0-4 and should not be typed.

Item chimeric llama-human IgG1 mAb 71G2 (antibody, V domains shown) VH: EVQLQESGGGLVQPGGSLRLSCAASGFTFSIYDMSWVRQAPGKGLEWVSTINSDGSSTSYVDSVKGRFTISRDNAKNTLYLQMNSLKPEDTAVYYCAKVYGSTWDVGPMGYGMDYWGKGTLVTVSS VL: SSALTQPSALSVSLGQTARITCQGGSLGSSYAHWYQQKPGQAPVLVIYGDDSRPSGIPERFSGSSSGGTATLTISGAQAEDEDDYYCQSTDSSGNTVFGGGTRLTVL : provide cell scattering score, MLP29, 1.000 nM
4

Give me measured cell scattering score, MLP29, 1.000 nM, please, for this binder: chimeric llama-human IgG1 mAb 71G12 (antibody, V domains shown) VH: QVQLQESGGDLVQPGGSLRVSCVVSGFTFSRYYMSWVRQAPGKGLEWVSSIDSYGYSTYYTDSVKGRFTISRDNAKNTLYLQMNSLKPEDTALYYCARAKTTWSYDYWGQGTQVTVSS VL: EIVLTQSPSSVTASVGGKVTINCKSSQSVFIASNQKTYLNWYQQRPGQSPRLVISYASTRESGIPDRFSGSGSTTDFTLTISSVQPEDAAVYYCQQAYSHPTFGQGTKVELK
2

State its cell scattering score, MLP29, 1.000 nM: chimeric llama-human IgG1 mAb 71D6 (antibody, V domains shown) VH: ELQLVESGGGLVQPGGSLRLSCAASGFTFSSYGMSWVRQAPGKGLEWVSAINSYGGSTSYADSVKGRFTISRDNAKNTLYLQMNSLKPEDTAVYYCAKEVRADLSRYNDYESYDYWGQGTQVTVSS VL: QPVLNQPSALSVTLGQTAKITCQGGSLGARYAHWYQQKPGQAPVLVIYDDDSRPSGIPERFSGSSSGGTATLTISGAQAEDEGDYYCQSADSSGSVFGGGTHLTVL
4

Supply measured cell scattering score, MLP29, 1.000 nM of chimeric llama-human IgG1 mAb 76H10 (antibody, V domains shown) VH: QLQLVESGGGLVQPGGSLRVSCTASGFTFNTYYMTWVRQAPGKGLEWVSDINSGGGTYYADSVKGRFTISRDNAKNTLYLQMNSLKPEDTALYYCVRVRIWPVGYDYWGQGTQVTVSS VL: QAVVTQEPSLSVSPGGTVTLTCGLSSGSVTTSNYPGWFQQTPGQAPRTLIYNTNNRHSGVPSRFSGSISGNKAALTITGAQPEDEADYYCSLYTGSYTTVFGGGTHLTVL in your reply.
1

Name the recorded cell scattering score, MLP29, 1.000 nM of the binder listed here: chimeric llama-human IgG1 mAb 71D4 (antibody, V domains shown) VH: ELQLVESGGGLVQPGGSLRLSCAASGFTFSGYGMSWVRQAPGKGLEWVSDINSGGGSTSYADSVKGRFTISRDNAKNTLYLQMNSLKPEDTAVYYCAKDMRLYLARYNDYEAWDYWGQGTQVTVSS VL: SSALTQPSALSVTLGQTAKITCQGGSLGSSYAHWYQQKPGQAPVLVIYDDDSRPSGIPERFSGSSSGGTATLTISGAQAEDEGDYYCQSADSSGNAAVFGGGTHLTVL
1

Note down cell scattering score, MLP29, 1.000 nM recorded for chimeric llama-human IgG1 mAb 72F8 (antibody, V domains shown) VH: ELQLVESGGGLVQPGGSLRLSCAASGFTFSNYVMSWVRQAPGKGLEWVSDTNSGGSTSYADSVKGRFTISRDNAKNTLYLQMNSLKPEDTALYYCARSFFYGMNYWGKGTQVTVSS VL: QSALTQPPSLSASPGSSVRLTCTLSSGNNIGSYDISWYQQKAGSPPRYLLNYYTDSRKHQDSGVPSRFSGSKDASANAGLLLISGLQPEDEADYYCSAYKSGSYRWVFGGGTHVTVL
1
